Assay: Cytotoxicity against human HepG2 cells assessed as decrease in ATP signal after 2 days by CellTiter-Glo assay
Assay type: cell-based
Settings: read-out: LD50
Attribute: CC50 at 48 h

Use the examples below as a reference point.
>>> df
                                   compound  observationtype      result
0  CCCc1cc(=O)oc2cc(C#Cc3ccc(F)cc3)c3c(c12)OC(C)(C)C=C3     CC50 at 48 h  > 19 µg/mL
1  CCCc1cc(=O)oc2cc(C#Cc3ccc(C)cc3)c3c(c12)OC(C)(C)C=C3     CC50 at 48 h  > 19 µg/mL
2  CCCc1cc(=O)oc2cc(OC3CCCC3)c3c(c12)OC(C)(C)C=C3     CC50 at 48 h  > 23 µg/mL
3  CCCc1cc(=O)oc2c3c(cc(OCCOC(=O)c4cnccn4)c12)O[C@H]([N+](=O)[O-])[C@H]3O (racemic)     CC50 at 48 h   < 1 µg/mL

CC50 at 48 h measured on CCCc1cc(=O)oc2cc(OCCN3CCCCC3)c3c(c12)OC(C)(C)C=C3 = > 20 µg/mL
